subject of test: recombinant GST-tagged XIAP (Homo sapiens, UniProt P98170)
Sequence (P98170 whole entry): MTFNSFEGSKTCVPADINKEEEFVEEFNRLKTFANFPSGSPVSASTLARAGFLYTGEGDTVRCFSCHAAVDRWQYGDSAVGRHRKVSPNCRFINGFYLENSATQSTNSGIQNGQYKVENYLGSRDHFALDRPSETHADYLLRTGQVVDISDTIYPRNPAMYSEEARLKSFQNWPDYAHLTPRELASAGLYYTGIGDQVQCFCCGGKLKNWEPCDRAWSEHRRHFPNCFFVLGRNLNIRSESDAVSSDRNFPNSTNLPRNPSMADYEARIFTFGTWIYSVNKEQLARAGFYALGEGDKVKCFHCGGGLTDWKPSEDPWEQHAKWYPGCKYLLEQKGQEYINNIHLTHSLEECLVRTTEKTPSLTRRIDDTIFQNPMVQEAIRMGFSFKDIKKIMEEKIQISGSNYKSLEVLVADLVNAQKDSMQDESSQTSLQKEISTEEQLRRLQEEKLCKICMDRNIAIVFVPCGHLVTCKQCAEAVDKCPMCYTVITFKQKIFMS
method description: MicroScale Thermophoresis (MST) binding to whole XIAP
setup conditions: GST-tagged XIAP (FIG. 4D), read-out: calculated Kd
recorded metric: pKd
Numbers only, as −log10 of the molar value.

Ask | # get_value(readout='pKd', item= COC(=O)c1[nH]c2ccc(Cl)cc2c1NC(=O)CN1CCN(Cc2ccccc2)CC1 [A4] )
Reply | 4.46

###

subject of test: fluorescently labeled Bir3 (His-tagged) domain of XIAP, residues 252-350 (Homo sapiens)
Construct: His-tagged Bir3 (XIAP 252-350) was expressed and purified
Sequence (P98170 252-350): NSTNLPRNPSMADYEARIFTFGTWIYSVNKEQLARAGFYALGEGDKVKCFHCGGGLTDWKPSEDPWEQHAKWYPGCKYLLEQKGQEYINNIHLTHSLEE
method description: MicroScale Thermophoresis (MST) binding to Bir3 domain of XIAP
setup conditions: 340 nM fl-labeled Bir3, pH 5.6, 2% DMSO, read-out: calculated Kd
recorded metric: Kd (µM)
One number for each entry, in µM.

Ask | # get_value(readout='Kd', item= COC(=O)c1[nH]c2ccc(Cl)cc2c1NC(=O)CN1CCN(Cc2ccccc2)CC1 )
Reply | 46.1
